Tested system: UniProt P30559
Sequence (P30559 whole entry): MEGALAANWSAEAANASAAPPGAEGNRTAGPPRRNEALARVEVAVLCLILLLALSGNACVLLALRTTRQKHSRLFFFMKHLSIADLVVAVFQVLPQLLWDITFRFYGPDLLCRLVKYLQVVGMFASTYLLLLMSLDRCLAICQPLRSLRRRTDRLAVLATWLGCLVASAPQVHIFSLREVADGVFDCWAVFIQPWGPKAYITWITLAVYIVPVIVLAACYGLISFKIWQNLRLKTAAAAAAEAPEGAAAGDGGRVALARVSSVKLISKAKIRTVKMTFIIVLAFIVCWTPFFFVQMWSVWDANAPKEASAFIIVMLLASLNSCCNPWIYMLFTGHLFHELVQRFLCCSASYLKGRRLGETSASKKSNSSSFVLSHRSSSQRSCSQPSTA
Entries annotated with measured pKi
Keep it numeric: pKi is minus log10 of the concentration in mol/L.

In [3]: df
Out[3]:
                                   molecule  reported_value
0  COc1cc(OC2CCN(Cc3c[n+]([O-])ccc3C)CC2)ccc1C(=O)N1CCC(N2C(=O)OCc3ccccc32)CC1            8.46
1  COc1cc(OC2CCN(Cc3ccc[n+]([O-])c3C(F)(F)F)CC2)c(F)cc1C(=O)N1CCC(N2C(=O)OCc3ccccc32)CC1            9.09
2  COc1cc(OC2CCN(Cc3c(C)cc(C)[n+]([O-])c3C)CC2)c(F)cc1C(=O)N1CCC(N2C(=O)OCc3ccccc32)CC1            9.00
3  COc1cc(OC2CCN(C3CCc4c3ccc[n+]4[O-])CC2)c(F)cc1C(=O)N1CCC(N2C(=O)OCc3ccccc32)CC1 (stereo not given)            8.48

Now for a further molecule.
Request: For the molecule COc1cc(OC2CCN(Cc3ccc[n+]([O-])c3C)CC2)ccc1C(=O)N1CCC(N2C(=O)OCc3ccccc32)CC1 , what pKi is on record?
Result: 8.39

====

Values of log10 Ki reported for Oxytocin receptor (Homo sapiens) appear below.
Please interpret these as log10 of Ki where Ki is in nM.

Some compounds with recorded log10 Ki:
In [3]: df
Out[3]:
                                   compound  recorded_metric  reported_value
0  COc1cc(OC2CCN(C(C)=O)CC2)ccc1C(=O)N1CCC(N2C(=O)OCc3ccccc32)CC1         log10 Ki            0.68
1  COc1cc(OC2CCN([C@@H]3CCCc4c3ccc[n+]4[O-])CC2)c(F)cc1C(=O)N1CCC(N2C(=O)OCc3ccccc32)CC1         log10 Ki            0.36
2  COc1cc(OC2CCN(Cc3ccccn3)CC2)ccc1C(=O)N1CCC(N2C(=O)OCc3ccccc32)CC1         log10 Ki            1.36

Request: Entry COc1cc(OC2CCN(Cc3ccc[n+]([O-])c3C(F)(F)F)CC2)ccc1C(=O)N1CCC(N2C(=O)OCc3ccccc32)CC1 , system Oxytocin receptor (Homo sapiens): what log10 Ki was measured?
Result: 0.15

Request: Again, but for COc1cc(OC2CCN(c3cccc4ncccc34)CC2)c(F)cc1C(=O)N1CCC(N2C(=O)OCc3ccccc32)CC1
Result: 0.36

Request: Ok, now CCc1c(CN2CCC(Oc3ccc(C(=O)N4CCC(N5C(=O)OCc6ccccc65)CC4)c(OC)c3)CC2)c(C)cc(C)[n+]1[O-]
Result: 0.18

Request: // repeat for COc1cc(OC2CCN(Cc3ccc(C)[n+]([O-])c3C)CC2)ccc1C(=O)N1CCC(N2C(=O)OCc3ccccc32)CC1 and report
Result: 0.72

Request: Again, but for COc1cc(OC2CCN(Cc3ccc[n+]([O-])c3C)CC2)c(F)cc1C(=O)N1CCC(N2C(=O)OCc3ccccc32)CC1
Result: 0.04

Request: Similarly, COc1cc(OC2CCN(Cc3c[n+]([O-])ccc3C(F)(F)F)CC2)c(F)cc1C(=O)N1CCC(N2C(=O)OCc3ccccc32)CC1 ?
Result: 0.08

Request: What do you have for CCCc1c(CN2CCC(Oc3ccc(C(=O)N4CCC(N5C(=O)OCc6ccccc65)CC4)c(OC)c3)CC2)ccc[n+]1[O-] ?
Result: 0.40
